- Assay Target: UniProt:P27338
- Sequence (P27338 whole entry): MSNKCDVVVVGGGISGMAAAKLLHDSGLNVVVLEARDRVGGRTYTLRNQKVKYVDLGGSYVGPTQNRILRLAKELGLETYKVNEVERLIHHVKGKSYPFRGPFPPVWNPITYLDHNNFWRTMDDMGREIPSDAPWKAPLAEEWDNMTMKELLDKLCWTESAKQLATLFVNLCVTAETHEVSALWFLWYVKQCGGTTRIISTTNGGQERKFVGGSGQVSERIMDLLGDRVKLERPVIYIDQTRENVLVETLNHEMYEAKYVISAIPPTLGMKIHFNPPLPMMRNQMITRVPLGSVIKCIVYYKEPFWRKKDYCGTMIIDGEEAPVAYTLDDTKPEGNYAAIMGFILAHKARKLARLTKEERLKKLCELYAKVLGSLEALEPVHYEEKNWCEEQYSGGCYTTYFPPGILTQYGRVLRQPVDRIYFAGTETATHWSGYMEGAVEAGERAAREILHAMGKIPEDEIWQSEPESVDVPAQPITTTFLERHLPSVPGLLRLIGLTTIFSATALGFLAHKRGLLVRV
- Protocol Notes: Inhibition of recombinant human MAO-B expressed in baculovirus infected High 5 insect cells using kynuramine as substrate incubated for 30 mins by spectrofluorometric method
Strictly below 800 nM in IC50: 1. Otherwise: -1.

Field: example entries. Status: answers known.
• O=C(/C=C/c1ccc(N2CCOCC2)cc1)c1ccc(OC(=O)N2CCCC2)cc1O = 1
• O=C(/C=C/c1ccc(N2CCCC2)cc1)c1ccc(OC(=O)N2CCCC2)cc1O = 1
• CCN(CC)C(=O)Oc1ccc(C(=O)/C=C/c2ccc(N(C)C)cc2)c(O)c1 = -1
• CN(C)c1ccc(/C=C/C(=O)c2ccc(O)cc2O)cc1 = 1
• CN(C)c1ccc(/C=C/C(=O)c2ccc(OC(=O)N3CCCC3)cc2O)cc1 = 1

Enquiry: Hello, I'm reviewing records and need to know if IC50 of CCN(C)C(=O)Oc1ccc(C(=O)/C=C/c2ccc(N(C)C)cc2)c(O)c1 is below 800 nM. Could you check?
Return: -1

Enquiry: Hello, I'm reviewing records and need to know if IC50 of CCN(CC)c1ccc(/C=C/C(=O)c2ccc(OC(=O)N3CCCC3)cc2O)cc1 is below 800 nM. Could you check?
Return: -1

Enquiry: Hello, I'm reviewing records and need to know if IC50 of CN(C)C(=O)Oc1ccc(C(=O)/C=C/c2ccc(N(C)C)cc2)c(O)c1 is below 800 nM. Could you check?
Return: -1
